Recorded values, source paper PMC9482650.

ASSAY SYSTEM: T1, DLG3_1, Q92796
T1 sequence (Q92796 125-227, limits assumed, looked up): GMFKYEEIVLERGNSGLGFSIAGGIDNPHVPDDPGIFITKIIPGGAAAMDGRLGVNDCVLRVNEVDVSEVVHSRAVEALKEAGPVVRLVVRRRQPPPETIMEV
ASSAY METHOD TEXT: holdup assay
Design: key: below the threshold = too weak to quantify, mostly under pKd 3.1 to 4
CONDITION LABEL: plain residues with an end cap or a label only (N-terminal biotin on a linker: ado-ado)
VALUE KIND: pKd

1. SGSLKLMTTV [DACT1, Q9NYF0]: 4.45
2. SKSNFGSEPL [KIF17, Q9P2E2]: below the threshold
3. SAAKVLTSMC [GHRHR, Q02643]: below the threshold
4. RKPKPSSSCC [RAB9A, P51151]: below the threshold
